Reference for the values: patent US6878707B2

Measured melting point by item

Example entries and their recorded answers appear below.
COC(=O)N1CCN(C2Cc3ccc(NC(=O)c4ccccc4-c4ccc(C(F)(F)F)cc4)cc3C2)CC1 (centres unmarked) ... 204 to 206 °C
COC(=O)N1CCN([C@@H]2Cc3ccc(NC(=O)c4cccc(C)c4-c4ccc(C(F)(F)F)cc4)cc3C2)CC1 ... 163 to 164 °C
COC(=O)N1CCN(C2Cc3ccc(NC(=O)c4ccccc4-c4ccc(C)cc4)cc3C2)CC1 (centres unmarked) ... 136 to 138 °C

**Q:** Given the entry Cc1cccc(C(=O)Nc2ccc3c(c2)CC(N2CCN(C(=O)N(C)C)CC2)C3)c1-c1ccc(C(F)(F)F)cc1 (centres unmarked) , report its measured melting point.
**A:** 217 to 218 °C

**Q:** Given the entry COC(=O)N1CCN(C2Cc3ccc(NC(=O)c4cccc(C)c4-c4ccc(C(F)(F)F)cc4)cc3C2)CC1 (racemic) , report its measured melting point.
**A:** 161 to 163 °C

**Q:** Given the entry Cc1cccc(C(=O)Nc2ccc3c(c2)CC(N2CCN(c4ccccc4)CC2)C3)c1-c1ccc(C(F)(F)F)cc1 (centres unmarked) , report its measured melting point.
**A:** 236 to 238 °C

**Q:** Given the entry Cc1ccc(S(=O)(=O)N2CCN(C3Cc4ccc(NC(=O)c5cccc(C)c5-c5ccc(C(F)(F)F)cc5)cc4C3)CC2)cc1 (centres unmarked) , report its measured melting point.
**A:** 153 to 154 °C

====

Measured melting point by item

Example entries and their recorded answers appear below.
Cc1cccc(C(=O)Nc2ccc3c(c2)CC(N2CCOCC2)C3)c1-c1ccc(C(F)(F)F)cc1 (stereo not shown) ... 201 to 204 °C
Cc1cccc(C(=O)Nc2ccc3c(c2)CC(N2CCC(C)CC2)C3)c1-c1ccc(C(F)(F)F)cc1 (stereo not shown) ... 219 to 221 °C
COC(=O)N1CCN(C2Cc3ccc(NC(=O)c4cccc(OC)c4-c4ccc(C(F)(F)F)cc4)cc3C2)CC1 (stereo not shown) ... 176 to 178 °C

We next turn to a different compound, shown below.
**Q:** Given the entry Cc1cccc(C(=O)Nc2ccc3c(c2)CC(N2CCN(C(=O)c4ccncc4)CC2)C3)c1-c1ccc(C(F)(F)F)cc1 (stereo not shown) , report its measured melting point.
**A:** 158 to 160 °C

====

Measured melting point by item

Example entries and their recorded answers appear below.
Cc1cccc(C(=O)Nc2ccc3c(c2)CC(N2CCN(Cc4ccccc4)CC2)C3)c1-c1ccc(C(F)(F)F)cc1 (stereo not shown) ... 188 to 191 °C
Cc1cccc(C(=O)Nc2ccc3c(c2)CC(N2CCN(S(C)(=O)=O)CC2)C3)c1-c1ccc(C(F)(F)F)cc1 (stereo not shown) ... 205 to 208 °C
Cc1cccc(C(=O)Nc2ccc3c(c2)CC(N2CCN(C(=O)CO)CC2)C3)c1-c1ccc(C(F)(F)F)cc1 (stereo not shown) ... 86 to 88 °C
COCC(=O)N1CCN(C2Cc3ccc(NC(=O)c4cccc(C)c4-c4ccc(C(F)(F)F)cc4)cc3C2)CC1 (stereo not shown) ... 161 to 162 °C

**Q:** Given the entry CC(=O)N1CCN(C2Cc3ccc(NC(=O)c4cccc(C(F)(F)F)c4-c4ccc(C(F)(F)F)cc4)cc3C2)CC1 (stereo not shown) , report its measured melting point.
**A:** 184 to 186 °C

**Q:** Given the entry Cc1cccc(C(=O)Nc2ccc3c(c2)CC(N2CCC4(CC2)OCCO4)C3)c1-c1ccc(C(F)(F)F)cc1 (stereo not shown) , report its measured melting point.
**A:** 202 to 203 °C

**Q:** Given the entry Cc1cccc(C(=O)Nc2ccc3c(c2)CC(N2CCN(C)CC2)C3)c1-c1ccc(C(F)(F)F)cc1 (stereo not shown) , report its measured melting point.
**A:** 209 to 210 °C
